Sourced from paper PMC3817407

system.under.test: T1, ECF22_4450
T1 chain: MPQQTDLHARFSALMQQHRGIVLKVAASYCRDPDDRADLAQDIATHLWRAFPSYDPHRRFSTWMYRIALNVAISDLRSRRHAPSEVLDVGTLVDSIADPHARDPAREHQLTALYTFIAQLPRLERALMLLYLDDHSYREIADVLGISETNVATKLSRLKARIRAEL
The binders listed here are annotated with their fold repression.
measured.attribute: fold repression

binder="AS11_987 (protein) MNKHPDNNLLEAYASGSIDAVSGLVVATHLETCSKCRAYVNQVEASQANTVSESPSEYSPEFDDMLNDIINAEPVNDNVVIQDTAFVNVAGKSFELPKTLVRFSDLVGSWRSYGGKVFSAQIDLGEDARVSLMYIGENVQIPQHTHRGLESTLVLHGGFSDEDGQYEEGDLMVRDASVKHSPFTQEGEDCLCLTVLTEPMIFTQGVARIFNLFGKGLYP" measured_attribute="fold repression" observed_result=5.44
binder="AS02_915 (protein) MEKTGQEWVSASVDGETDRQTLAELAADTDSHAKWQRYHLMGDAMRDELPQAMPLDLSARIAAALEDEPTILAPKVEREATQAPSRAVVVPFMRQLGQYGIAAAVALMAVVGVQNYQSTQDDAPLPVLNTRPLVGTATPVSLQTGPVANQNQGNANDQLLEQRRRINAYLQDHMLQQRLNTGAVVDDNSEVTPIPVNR" measured_attribute="fold repression" observed_result=4.13
binder="AS27_4265 (protein) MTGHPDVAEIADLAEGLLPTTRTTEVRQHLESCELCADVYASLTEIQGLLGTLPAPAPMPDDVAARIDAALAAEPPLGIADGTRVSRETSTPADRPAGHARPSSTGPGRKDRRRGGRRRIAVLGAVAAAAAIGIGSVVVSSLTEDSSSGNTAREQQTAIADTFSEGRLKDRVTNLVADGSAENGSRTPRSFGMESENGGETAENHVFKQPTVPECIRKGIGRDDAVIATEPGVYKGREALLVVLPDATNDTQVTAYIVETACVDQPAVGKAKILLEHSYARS" measured_attribute="fold repression" observed_result=4.03
